Readings of AUC for the listed molecules
# Assay: in vivo
# Run conditions: C57BL/6J, mouse, plasma, po, 10 mg/kg

CC(C)C[C@H](N)c1cc(C(F)(F)F)ccc1N1CCN(C(=O)[C@@H](Cc2ccc(Cl)cc2)N2CCCC2=O)CC1 | 2270 ng·h/mL

Query :: State the recorded AUC for this entry: CC(C)C[C@H](N)c1cc(C(F)(F)F)ccc1N1CCN(C(=O)[C@@H](Cc2ccc(Cl)cc2Cl)N2CCNCC2=O)CC1
Result :: 1530 ng·h/mL

----------
# Study system: Melanocortin receptor 4 (Homo sapiens, UniProt P32245)
# Sequence (P32245 whole entry): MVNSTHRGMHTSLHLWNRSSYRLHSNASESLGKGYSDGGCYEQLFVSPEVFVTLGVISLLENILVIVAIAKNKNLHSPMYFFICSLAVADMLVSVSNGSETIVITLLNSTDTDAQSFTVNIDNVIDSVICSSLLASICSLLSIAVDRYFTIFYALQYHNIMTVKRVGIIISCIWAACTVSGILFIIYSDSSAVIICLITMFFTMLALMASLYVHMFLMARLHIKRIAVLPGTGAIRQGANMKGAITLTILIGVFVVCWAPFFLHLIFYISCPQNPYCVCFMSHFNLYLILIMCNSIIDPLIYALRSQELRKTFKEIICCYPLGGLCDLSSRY
# Assay: Displacement of [125I]NDP-MSH from MC4R receptor in HEK293 cells
Ki values, listed per item
Give the value, in units of nM, as a plain number.

CC(=O)N[C@H](Cc1ccc(Cl)cc1Cl)C(=O)N1CCN(c2c(F)cccc2[C@H](N)CC(C)C)CC1 | 6

Query :: Recorded Ki for CC(C)C[C@@H](N)c1cccc(F)c1N1CCN(C(=O)[C@@H](Cc2ccc(Cl)cc2Cl)NC(=O)CCN)CC1 , please?
Result :: 2.3

Query :: Query (compound): CC(=O)N[C@H](Cc1ccc(Cl)cc1Cl)C(=O)N1CCN(c2ccc(F)cc2[C@H](N)CC(C)C)CC1 ; field requested: Ki
Result :: 26

Query :: Look up Ki for this compound: CC(C)C[C@@H](N)c1cccc(C(F)(F)F)c1N1CCN(C(=O)[C@@H](Cc2ccc(Cl)cc2Cl)NC(=O)CCN)CC1
Result :: 29

Query :: Entry CC(C)C[C@H](N)c1cc(C(F)(F)F)ccc1N1CCN(C(=O)[C@@H](Cc2ccc(Cl)cc2)N2CCCC2=O)CC1 has what Ki?
Result :: 11

Query :: Quick one: Ki of CC(C)C[C@H](N)c1cccc(C(F)(F)F)c1N1CCN(C(=O)[C@@H](Cc2ccc(Cl)cc2Cl)NC(=O)CCN)CC1 ?
Result :: 2.5
